Reference for the values: paper PMC6277545

substrate: O=CC(O)COP(=O)(O)O; assay: coupled alpha-glycerophosphate dehydrogenase assay, A340; format: biochemical, Synechocystis sp. PCC 6803; settings: 0.1 M TEA pH 7.4, 10 mM EDTA, 0.2 mM NADH, G3P 0-5 mM, G3P to DHAP
Kindly state kcat/Km for each of the entries shown.

Return value of kcat/Km for input SyTPI (Synechocystis sp. PCC 6803 substr. Kazusa; C176S/C42A) (protein, full length, codon-optimised, E. coli BL21(DE3) delta-tpi; His tag cut by PreScission, extra Gly-Pro-His before Met1; homodimer 54 kDa) MRKIIIAGNWKMHKTQAEAQAFLQGFKPLIEDAAESREVVLAVPFTDLSGMSQQLHGGRVRLGAQNVHWEASGAYTGEISAAMLTEIGIHYVVIGHSERRQYFGETDETANLRVLAAQKAGLIPILCVGESKAQRDAGETEQVIVDQVKKGLVNVDQSNLVIAYEPIWAIGTGDTSAATEANRVIGLIREQLTNSQVTIQYGGSVNANNVDEIMAQPEIDGALVGGASLEPQSFARIVNFQP , no commentary.
1.46e+06 M⁻¹ s⁻¹

Provide only the value of recorded kcat/Km for SyTPI (Synechocystis sp. PCC 6803 substr. Kazusa; C127A/C176S) (protein, full length, codon-optimised, E. coli BL21(DE3) delta-tpi; His tag cut by PreScission, extra Gly-Pro-His before Met1; homodimer 54 kDa) MRKIIIAGNWKMHKTQAEAQAFLQGFKPLIEDAAESREVVLCVPFTDLSGMSQQLHGGRVRLGAQNVHWEASGAYTGEISAAMLTEIGIHYVVIGHSERRQYFGETDETANLRVLAAQKAGLIPILAVGESKAQRDAGETEQVIVDQVKKGLVNVDQSNLVIAYEPIWAIGTGDTSAATEANRVIGLIREQLTNSQVTIQYGGSVNANNVDEIMAQPEIDGALVGGASLEPQSFARIVNFQP
573000 M⁻¹ s⁻¹

Annotate the protein SyTPI (Synechocystis sp. PCC 6803 substr. Kazusa; C127A) (protein, full length, codon-optimised, E. coli BL21(DE3) delta-tpi; His tag cut by PreScission, extra Gly-Pro-His before Met1; homodimer 54 kDa) MRKIIIAGNWKMHKTQAEAQAFLQGFKPLIEDAAESREVVLCVPFTDLSGMSQQLHGGRVRLGAQNVHWEASGAYTGEISAAMLTEIGIHYVVIGHSERRQYFGETDETANLRVLAAQKAGLIPILAVGESKAQRDAGETEQVIVDQVKKGLVNVDQSNLVIAYEPIWAIGTGDTCAATEANRVIGLIREQLTNSQVTIQYGGSVNANNVDEIMAQPEIDGALVGGASLEPQSFARIVNFQP with its measured kcat/Km.
1.71e+06 M⁻¹ s⁻¹

Assign kcat/Km to the following record: SyTPI (Synechocystis sp. PCC 6803 substr. Kazusa; C127A/C42A) (protein, full length, codon-optimised, E. coli BL21(DE3) delta-tpi; His tag cut by PreScission, extra Gly-Pro-His before Met1; homodimer 54 kDa) MRKIIIAGNWKMHKTQAEAQAFLQGFKPLIEDAAESREVVLAVPFTDLSGMSQQLHGGRVRLGAQNVHWEASGAYTGEISAAMLTEIGIHYVVIGHSERRQYFGETDETANLRVLAAQKAGLIPILAVGESKAQRDAGETEQVIVDQVKKGLVNVDQSNLVIAYEPIWAIGTGDTCAATEANRVIGLIREQLTNSQVTIQYGGSVNANNVDEIMAQPEIDGALVGGASLEPQSFARIVNFQP
1.48e+06 M⁻¹ s⁻¹
